Each item that follows carries a reported log10(Kb).
Biological target: human, citrated, platelet-rich plasma (Homo sapiens, UniProt P05106+P08514)
Construct: aggregating human, citrated, platelet-rich plasma; endogenous in cells; host or cells: human platelets in citrated platelet-rich plasma
Sequence (P08514 32-887 limits assumed): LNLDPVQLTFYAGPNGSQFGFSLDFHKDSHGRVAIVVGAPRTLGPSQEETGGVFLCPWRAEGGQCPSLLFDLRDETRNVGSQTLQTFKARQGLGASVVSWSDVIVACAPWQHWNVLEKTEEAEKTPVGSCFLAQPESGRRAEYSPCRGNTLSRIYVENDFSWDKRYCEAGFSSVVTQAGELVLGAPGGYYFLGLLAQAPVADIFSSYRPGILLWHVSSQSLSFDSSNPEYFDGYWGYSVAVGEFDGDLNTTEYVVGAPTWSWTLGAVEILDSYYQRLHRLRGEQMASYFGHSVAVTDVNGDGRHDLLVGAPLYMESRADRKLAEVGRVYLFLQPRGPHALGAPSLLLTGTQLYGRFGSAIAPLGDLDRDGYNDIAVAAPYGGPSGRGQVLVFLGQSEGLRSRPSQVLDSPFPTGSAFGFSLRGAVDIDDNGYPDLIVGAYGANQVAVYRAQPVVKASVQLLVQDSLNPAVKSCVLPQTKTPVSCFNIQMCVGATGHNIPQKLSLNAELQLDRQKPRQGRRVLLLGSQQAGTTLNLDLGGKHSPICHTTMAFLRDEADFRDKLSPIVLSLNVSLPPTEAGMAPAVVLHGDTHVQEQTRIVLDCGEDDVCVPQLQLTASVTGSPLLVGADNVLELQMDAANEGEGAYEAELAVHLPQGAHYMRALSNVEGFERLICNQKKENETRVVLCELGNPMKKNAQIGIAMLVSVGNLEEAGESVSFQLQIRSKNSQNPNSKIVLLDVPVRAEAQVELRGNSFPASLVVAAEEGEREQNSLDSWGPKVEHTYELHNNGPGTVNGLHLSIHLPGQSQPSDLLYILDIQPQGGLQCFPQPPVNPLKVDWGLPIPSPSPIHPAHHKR
Sequence (P08514 891-1039 limits assumed): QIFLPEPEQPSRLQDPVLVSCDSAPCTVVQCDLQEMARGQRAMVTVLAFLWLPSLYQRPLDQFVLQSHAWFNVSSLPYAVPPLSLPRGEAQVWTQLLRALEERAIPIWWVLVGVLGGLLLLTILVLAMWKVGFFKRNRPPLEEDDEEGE
Sequence (P05106 27-788): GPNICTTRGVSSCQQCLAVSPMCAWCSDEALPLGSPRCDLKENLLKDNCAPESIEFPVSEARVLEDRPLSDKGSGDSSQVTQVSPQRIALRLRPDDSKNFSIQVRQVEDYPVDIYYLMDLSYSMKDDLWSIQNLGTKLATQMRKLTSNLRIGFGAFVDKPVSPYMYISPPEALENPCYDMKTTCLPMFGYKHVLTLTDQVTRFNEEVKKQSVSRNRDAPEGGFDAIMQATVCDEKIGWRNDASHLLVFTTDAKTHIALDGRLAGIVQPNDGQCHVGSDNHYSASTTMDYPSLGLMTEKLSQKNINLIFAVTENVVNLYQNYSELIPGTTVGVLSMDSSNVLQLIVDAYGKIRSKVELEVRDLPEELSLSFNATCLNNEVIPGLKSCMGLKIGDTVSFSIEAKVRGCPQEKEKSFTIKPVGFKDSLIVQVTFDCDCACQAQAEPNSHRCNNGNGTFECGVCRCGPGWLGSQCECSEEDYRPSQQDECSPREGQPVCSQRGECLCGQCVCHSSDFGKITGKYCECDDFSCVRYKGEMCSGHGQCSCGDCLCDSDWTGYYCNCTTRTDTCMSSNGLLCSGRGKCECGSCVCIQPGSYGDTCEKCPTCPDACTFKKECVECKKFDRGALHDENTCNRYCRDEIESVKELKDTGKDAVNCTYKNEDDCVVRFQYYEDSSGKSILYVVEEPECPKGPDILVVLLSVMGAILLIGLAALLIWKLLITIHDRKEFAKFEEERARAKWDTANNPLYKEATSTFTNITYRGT
Experiment: Test (a): inhibition of ADP stimulated platelet aggregation (Born)
Type: cell-based
Conditions: Test (a): pA2 value indicating potency of platelet aggregation inhibition, ADP induced aggregation of human platelet-rich plasma
Description: (i) aggregating human, citrated, platelet-rich plasma by addition of adenosine diphosphate so as to generate a dose-response curve; (ii) generating a dose-response curve for ADP stimulated platelet aggregation in the presence of increasing amounts of a test compound (generally in the range 10-^5 M to 10-^10 M); and […]
The common logarithm of Kb in nM is what is listed.

Use these answered entries as a reference point.
COC(=O)COc1ccc(C(=O)C(C)N2CCN(c3ccncc3)CC2)cc1 (racemic) [Example 16]	2.20
CN(CC(=O)O)C(=O)c1ccc(N2CCN(c3ccncc3)CC2)cc1 [Example 189]	3.10
CC(C(=O)c1ccc(OCC(=O)O)c(OCC(=O)O)c1)N1CCN(c2ccncc2)CC1 (centres unmarked) [Example 79]	1.10
COC(=O)COc1ccc2c(c1)CCC(N1CCN(c3ccncc3)CC1)C2=O (centres unmarked) [Example 80]	2.40

Switching to the query record.
Request the reported log10(Kb) associated with CC(C(=O)c1ccc(OCC(=O)O)cc1)N1CCN(c2ccncc2)CC1 (racemic) [Example 17, dihydrate]
1.60

---

Target: human, citrated, platelet-rich plasma (Homo sapiens, UniProt P05106+P08514)
Construct: aggregating human, citrated, platelet-rich plasma; endogenous in cells; host or cells: human platelets in citrated platelet-rich plasma
Assay: Test (a): inhibition of ADP stimulated platelet aggregation (Born)
Type: cell-based
Details: ADP induced aggregation of human platelet-rich plasma; read-out: Test (a): pA2 value indicating potency of platelet aggregation inhibition (converted)
Text: (i) aggregating human, citrated, platelet-rich plasma by addition of adenosine diphosphate so as to generate a dose-response curve; (ii) generating a dose-response curve for ADP stimulated platelet aggregation in the presence of increasing amounts of a test compound (generally in the range 10-^5 M to 10-^10 M); and […]
Structures can show the parent of a compound that is named as a salt.
Decision: Kb compared against 1 µM; not below it gives Met, below it gives Not met.

O=C(O)COc1ccc(NC(=O)C2CCN(c3ccncc3)CC2)cc1 [Example 164]	Not met
CCCCS(=O)(=O)NC(Cc1ccc(C(=O)CN2CCN(c3ccncc3)CC2)cc1)C(=O)O (racemic) [Example 67]	Not met
Cc1cc(N2CCN(CC(=O)c3ccc(OCC(=O)O)cc3)CC2)cc(C)n1 [Example 154, dihydrobromide]	Met
Cc1cc(N2CCN(c3ccncc3)CC2)ccc1OCCCC(=O)O [Example 210]	Not met

Has O=C(O)[C@H]1CC[C@H](Oc2ccc(N3CCN(c4ccncc4)CC3)cc2)CC1 [Example 231] a recorded Kb greater than or equal to 1 µM?
Not met

Form field: Kb at least 1 µM? Entry: O=C(O)COc1ccc(C(=O)CN2CCN(c3ccncn3)CC2)cc1 [Example 48]
Met

Hello, I need to know if O=C(O)CCCOc1ccc(N2CCN(c3ccncc3)CC2=O)cc1 [Example 243] has measured Kb not below 1 µM. Thanks!
Not met

Decide: is the reported value of Kb for COCCNC(=O)COc1ccc(C(=O)CN2CCN(c3ccncc3)CC2)cc1 [Example 144] equal to or greater than 1 µM?
Met

Check the entry CCCCS(=O)(=O)NC(CC1CCN(C(=O)CN2CCN(c3ccncc3)CC2)CC1)C(=O)OCC (racemic) [Example 110] : does Kb equal or exceed 1 µM?
Met
